- Tested on: Rattus norvegicus
- assay.method.text: Antagonistic activity against fenfluramine induced hyperthermia in rat after peroral administration
- Format: functional
- measurement.conditions: po, read-out: ID50 (the source's name)
Measured ED50 by item
Kindly provide the numeric value in mg/kg only, without the unit symbol.

As a guide, the following entries are already answered.
Ask: Which value of ED50 has been reported for CCCOc1ccc2cc(-c3ccccc3)c(SCCN(C)C)nc2c1.O=C(O)C(=O)O in the records?
Result: 50

Ask: Which value of ED50 has been reported for CCCCc1cc2ccccc2nc1SCCN(C)C.Cl in the records?
Result: 50

Ask: Which value of ED50 has been reported for Cc1ccc2cc(-c3ccccc3)c(SCCN(C)C)nc2c1.O=C(O)C(=O)O in the records?
Result: 50

***
Ask: Which value of ED50 has been reported for Cc1ccc(-c2cc3ccccc3nc2SCCN(C)C)cc1.Cl in the records?
Result: 4.2

Ask: Which value of ED50 has been reported for COc1ccc(-c2cc3ccccc3nc2SCCN(C)C)cc1.Cl in the records?
Result: 28

Ask: Which value of ED50 has been reported for CN(C)CCSc1nc2ccccc2cc1-c1ccccn1.O=C(O)C(=O)O in the records?
Result: 50

Ask: Which value of ED50 has been reported for CN(C)CCSc1nc2ccc(Cl)cc2cc1-c1ccccc1.O=C(O)C(=O)O in the records?
Result: 50

Ask: Which value of ED50 has been reported for COc1c(-c2ccccc2C)c(SCCN(C)C)nc2ccccc12.Cl in the records?
Result: 7.2

Ask: Which value of ED50 has been reported for CSc1ccc2nc(SCCN(C)C)c(-c3ccccc3)cc2c1.O=C(O)C(=O)O in the records?
Result: 10.3

Ask: Which value of ED50 has been reported for COc1ccccc1-c1cc2ccccc2nc1SCCN(C)C.Cl in the records?
Result: 4.6

Ask: Which value of ED50 has been reported for CCCOc1ccc(-c2cc3ccccc3nc2SCCN(C)C)cc1.Cl in the records?
Result: 5.3

Ask: Which value of ED50 has been reported for COc1c(-c2ccccc2)c(SCCN(C)C)nc2ccccc12.O=C(O)C(=O)O in the records?
Result: 5.5

Ask: Which value of ED50 has been reported for Cc1c(-c2ccc(F)cc2)c(SCCN(C)C)nc2ccccc12.O=C(O)C(=O)O in the records?
Result: 11.1

Ask: Which value of ED50 has been reported for COc1ccc2nc(SCCN(C)C)c(-c3ccccc3)cc2c1.O=C(O)C(=O)O in the records?
Result: 8.3

====

- Tested on: Mus musculus
- assay.method.text: Antagonistic activity test against 5-Hydroxytryptamine-induced head shake in mouse after intraperitoneal administration
- Assay type: functional
- measurement.conditions: ip, read-out: ID50 (the source's name)
quantity.measured: ED50 (mg/kg)
Kindly provide the numeric value in mg/kg only, without the unit symbol.

As a guide, the following entries are already answered.
Ask: Which value of ED50 has been reported for CCCCc1cc2ccccc2nc1SCCN(C)C.Cl in the records?
Result: 2.3

Ask: Which value of ED50 has been reported for CN(C)CCSc1nc2ccccc2cc1-c1ccc(C#N)cc1.Cl in the records?
Result: 1.2

Ask: Which value of ED50 has been reported for CC(c1ccccc1)c1cc2ccccc2nc1SCCN(C)C.O=C(O)C(=O)O (centres undefined) in the records?
Result: 50

Ask: Which value of ED50 has been reported for CN(C)CCSc1nc2ccc(Cl)cc2cc1-c1ccccc1.O=C(O)C(=O)O in the records?
Result: 50

Ask: Which value of ED50 has been reported for COc1ccc(OC)c(-c2cc3ccccc3nc2SCCN(C)C)c1.Cl in the records?
Result: 3

Ask: Which value of ED50 has been reported for CN(C)CCSc1nc2ccccc2cc1-c1ccccc1F.Cl in the records?
Result: 1.9

Ask: Which value of ED50 has been reported for CN(C)CCSc1nc2ccccc2cc1-c1ccc(O)cc1.Cl in the records?
Result: 7.9

Ask: Which value of ED50 has been reported for COc1c(-c2ccsc2)c(SCCN(C)C)nc2ccccc12.O=C(O)C(=O)O in the records?
Result: 50

***
Ask: Which value of ED50 has been reported for CCN(CC)CCSc1nc2ccccc2cc1-c1ccccc1.Cl in the records?
Result: 25
